Origin of values: patent US20260138980A1

Tested on: EPO
Assay explanation: Determination of EPO inhibition rate by compounds using Hep3B cells (EPO ELISA of culture supernatant)
Assay type: cell-based
Assay conditions: Homo sapiens, EPO induced with 30 μM (6′-hydroxy-3′-(4-methoxyphenyl)-8′-oxo-8′H-spiro[cyclopentane-1,5′-indolizine]-7′-carbonyl)glycine or its analogues, test compound 48 hours
Measured endpoint: pIC50
The meaning of pIC50 here: minus log10 of the concentration in molar units.

Reported pIC50 ( FC1=CC[C@@]2(CN3C=C(C(F)(F)F)C=C(OC(F)F)C3=N2)c2cccc(F)c21 (single isomer, unassigned) [Example 15-A] ) = 8.67

Documented pIC50 of FC(F)OC1=CC(C(F)(F)F)=CN2C[C@]3(CC=Cc4c3ccnc4Cl)N=C12 (single isomer, unassigned) [Example 2-A] : 6.44

// pIC50 value for FC1=CC[C@]2(CN3C=C(C(F)(F)F)C=C(OC(F)F)C3=N2)c2ccnc(Cl)c21 (single isomer, unassigned) [Example 1-B] : 6.25

Lab book: pIC50 of FC1=Cc2c(ccnc2Cl)[C@@]2(C1)CN1C=C(C(F)(F)F)C=C(OC(F)F)C1=N2 (single isomer, unassigned) [Example 10-B] noted as 7.57

Memo: FC(F)OC1=CC(C(F)(F)F)=CN2CC3(CC(Cl)=Cc4c3ccnc4Cl)N=C12 (stereo not shown) [Example 9] , reported pIC50: 7.32

The molecule identified as Fc1cccc2c1C=CC[C@]21CN2C=C(C(F)(F)F)C=C(OC(F)F)C2=N1 (single isomer, unassigned) [Example 16-B] registered its pIC50 at 7.69

Documented pIC50 of Fc1c(Br)ccc2c1C(I)=CCC21CN2C=C(C(F)(F)F)C=C(OC(F)F)C2=N1 (stereo not shown) [Example 13] : 6.94
